// provenance: ChEMBL document CHEMBL3286091

- Assay explanation: Clearance in rat at 40 mg/kg, po and 5 mg/kg, iv by LC-MS/MS analysis
- Type: ADME, organism-based
- Condition info: in vivo
Form field: clearance (one value per entry).
Give the value in mL/min/kg but do not write mL/min/kg after it.

O=C1COc2ccc(CN[C@H]3CCN(CCn4c(=O)ccc5ncc(F)cc54)C[C@H]3F)nc2N1	63

The compound listed as Cc1ncc(CNC2CCN(CCn3c(=O)ccc4ccc(C#N)cc43)CC2)cc1C#N has a reported clearance of 41

The compound listed as COc1cnc2ccc(=O)n(CCN3CC[C@@H](NCc4cnc(C)c(C#N)c4)[C@@H](OC)C3)c2c1 has a reported clearance of 54

The compound listed as COc1cnc2ccc(=O)n(CCN3CC[C@@H](NCc4cnc(C)c(C#N)c4)[C@@H](F)C3)c2c1 has a reported clearance of 42

The compound listed as O=C1COc2ccc(CN[C@@H]3CCN(CCn4c(=O)ccc5ncc(F)cc54)C[C@@H]3F)nc2N1 has a reported clearance of 87

----------
- Assay explanation: Fraction unbound in aminobenzotriazole-pretreated BALB/c mouse plasma infected with Mycobacterium tuberculosis by LC-MS/MS analysis
- Assay type: ADME, cell-free
Returns one of yes (1) or no (0); yes (1) when fraction unbound is >= 0.4.

The examples below pair each entry with its known result.
O=C1COc2ccc(CN[C@@H]3CCN(CCn4c(=O)ccc5ncc(F)cc54)C[C@@H]3F)nc2N1	no (0)
COc1cnc2ccc(=O)n(CCN3CCC(NCc4cnc(C)c(C#N)c4)CC3)c2c1	no (0)
COc1cnc2ccc(=O)n(CCN3CC[C@H](NCc4ccc5c(n4)NC(=O)CO5)[C@H](F)C3)c2c1	yes (1)
Cc1ncc(CNC2CCN(CCn3c(=O)ccc4ccc(C#N)cc43)CC2)cc1C#N	yes (1)

Exercise: Check the entry O=C1COc2ccc(CN[C@H]3CCN(CCn4c(=O)ccc5ncc(F)cc54)C[C@H]3F)nc2N1 : does fraction unbound equal or exceed 0.4?
Solution: yes (1)

----------
- Assay explanation: Oral bioavailability in rat at 40 mg/kg by LC-MS/MS analysis
- Assay type: ADME, organism-based
- Condition info: in vivo
Readout kind: bioavailability

The following molecules have reported results that may help.
COc1cnc2ccc(=O)n(CCN3CCC(NCc4cnc(C)c(C#N)c4)CC3)c2c1	> 100%
Cc1ncc(CN[C@@H]2CCN(CCn3c(=O)ccc4ncc(F)cc43)C[C@@H]2F)cc1C#N	> 100%
O=C1COc2ccc(CN[C@H]3CCN(CCn4c(=O)ccc5ncc(F)cc54)C[C@H]3F)nc2N1	> 100%
O=C1COc2ccc(CN[C@@H]3CCN(CCn4c(=O)ccc5ncc(F)cc54)C[C@@H]3F)nc2N1	87%

// switching to the query molecule
The molecule listed as Cc1ncc(CNC2CCN(CCn3c(=O)ccc4ccc(C#N)cc43)CC2)cc1C#N has a reported bioavailability of > 100%

----------
- System under test: UniProt Q12809
- Sequence (Q12809 whole entry): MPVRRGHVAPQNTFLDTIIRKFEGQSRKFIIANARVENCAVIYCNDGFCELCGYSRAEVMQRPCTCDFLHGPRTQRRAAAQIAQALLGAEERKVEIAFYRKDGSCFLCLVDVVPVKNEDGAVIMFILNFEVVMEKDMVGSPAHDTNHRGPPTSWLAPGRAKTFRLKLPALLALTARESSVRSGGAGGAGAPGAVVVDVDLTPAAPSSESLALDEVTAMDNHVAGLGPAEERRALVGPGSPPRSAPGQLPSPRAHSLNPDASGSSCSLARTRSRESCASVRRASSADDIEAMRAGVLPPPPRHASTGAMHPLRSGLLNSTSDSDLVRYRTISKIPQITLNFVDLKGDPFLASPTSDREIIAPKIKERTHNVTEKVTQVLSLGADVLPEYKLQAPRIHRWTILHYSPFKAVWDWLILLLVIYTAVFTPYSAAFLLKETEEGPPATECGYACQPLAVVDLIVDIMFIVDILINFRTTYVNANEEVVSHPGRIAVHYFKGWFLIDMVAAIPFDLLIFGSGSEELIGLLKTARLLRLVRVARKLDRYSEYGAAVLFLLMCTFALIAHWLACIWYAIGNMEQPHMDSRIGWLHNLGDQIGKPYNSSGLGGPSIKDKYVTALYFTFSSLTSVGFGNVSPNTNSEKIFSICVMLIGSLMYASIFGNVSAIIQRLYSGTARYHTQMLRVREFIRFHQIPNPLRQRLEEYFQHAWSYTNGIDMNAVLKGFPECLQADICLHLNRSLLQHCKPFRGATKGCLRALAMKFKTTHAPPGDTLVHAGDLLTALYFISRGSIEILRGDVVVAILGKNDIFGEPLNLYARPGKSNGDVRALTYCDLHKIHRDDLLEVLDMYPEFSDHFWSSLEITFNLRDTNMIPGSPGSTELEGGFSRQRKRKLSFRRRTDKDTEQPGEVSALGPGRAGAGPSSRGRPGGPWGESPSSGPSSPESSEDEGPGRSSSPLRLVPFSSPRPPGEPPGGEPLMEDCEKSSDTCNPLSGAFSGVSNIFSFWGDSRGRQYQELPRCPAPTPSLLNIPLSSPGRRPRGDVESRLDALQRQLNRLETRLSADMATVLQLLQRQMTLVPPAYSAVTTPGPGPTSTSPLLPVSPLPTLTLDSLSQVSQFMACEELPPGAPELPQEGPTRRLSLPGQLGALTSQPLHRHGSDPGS
- Assay explanation: Inhibition of human ERG by patch clamp electrophysiological analysis
Form field: pIC50 (one value per entry).
Please report pIC50 as the negative decimal logarithm of the molar concentration, giving only the number.

The following compounds have reported results that may help.
COc1cc(C#N)c2ccc(=O)n(CCN3CCC(NCc4cnc(C)c(C#N)c4)CC3)c2c1	5.60
COc1cnc2ccc(=O)n(CCN3CCC(NCc4cnc(C)c(C#N)n4)CC3)c2c1	4.16
Cc1ncc(CNC2CCN(CCn3c(=O)ccc4ncc(F)cc43)CC2)cc1C#N	4.16
COc1ccc2ncc(=O)n(CCN3CCC(NCc4cnc(C)c(C#N)c4)CC3)c2n1	4.89

// switching to the query compound
The compound listed as COc1cnc2ccc(=O)n(CCN3CCC(NCc4cnc(C)c(C#N)c4)CC3)c2c1 has a reported pIC50 of 4.30
